These data points were gathered from patent US12152035B2.

# Test system: CWR22RV1 cells
# procedure-text: Cytotoxicity assay (AlamarBlue, 72 hours)
# Assay type: cell-based
# condition: 72 hours treatment, concentration not given
# Experimental: Compound stock solutions of 10 mM were prepared with 100% DMSO and shaken for 10-15 seconds. The compound stock solutions were centrifuged at 12000 rpm (13523 rcf.) for 5 minutes and record the turbidity or precipitation state with a photo snapshot. […] Cells were seeded in a 96-well plate (1×10^4 cells/well). […] The fluorescence value at Ex/Em=560/590 nm was read with a microplate reader, and the cytotoxicity (%) was calculated. […]
readout-name: Cytotoxicity, CWR22RV1 cells (cell viability %)

Sample answers from the record:
compound	target-under-test	result
O=C1CCC(N2Cc3cc(C#CCOCCCCOc4ccc(C5CCN(C6=Nn7c(nnc7C(F)(F)F)CC6)CC5)cc4)ccc3C2=O)C(=O)N1 (stereo not shown)	CWR22RV1 cells	+ (60-80% : +)
O=C1CCC(N2Cc3c(C#CCCCCOc4ccc(C5CCN(C6=Nn7c(nnc7C(F)(F)F)CC6)CC5)cc4)cccc3C2=O)C(=O)N1 (stereo not shown)	CWR22RV1 cells	+ (60-80% : +)
O=C1CCC(N2Cc3cc(C4=CCN(C(=O)COCCCCOc5ccc(C6CCN(C7=Nn8c(nnc8C(F)(F)F)CC7)CC6)cc5)CC4)ccc3C2=O)C(=O)N1 (stereo not shown)	CWR22RV1 cells	++ (40-60% : ++)
O=C1CCC(N2C(=O)c3cccc(N4CCC(N5CCC(C#Cc6ccc(C7CCN(C8=Nn9c(nnc9C(F)(F)F)CC8)CC7)cc6)CC5)CC4)c3C2=O)C(=O)N1 (stereo not shown)	CWR22RV1 cells	+++ (<40% : +++)
Cc1ncsc1-c1ccc(CNC(=O)[C@@H]2C[C@H](O)CN2C(=O)[C@@H](NC(=O)CCOCCOCCN2CCN(c3ccc(C#Cc4ccc(C5CCN(C6=Nn7c(nnc7C(F)(F)F)CC6)CC5)cc4)cn3)CC2)C(C)(C)C)cc1	CWR22RV1 cells	+ (60-80% : +)
Cc1ncsc1-c1ccc(CNC(=O)[C@@H]2C[C@H](O)CN2C(=O)[C@@H](NC(=O)COCCCCOc2ccc(C3CCN(C4=Nn5c(nnc5C(F)(F)F)CC4)CC3)cc2)C(C)(C)C)c(O)c1	CWR22RV1 cells	+++ (<40% : +++)
Cc1ncsc1-c1ccc(CNC(=O)[C@@H]2C[C@H](O)CN2C(=O)[C@@H](NC(=O)c2ccc(C(=O)N3CCC(C#Cc4ccc(C5CCN(C6=Nn7c(nnc7C(F)(F)F)CC6)CC5)cc4)CC3)cc2)C(C)(C)C)cc1	CWR22RV1 cells	− (<80% : −)
Cc1ncsc1-c1ccc(CNC(=O)[C@@H]2C[C@H](O)CN2C(=O)[C@@H](NC(=O)COCCCCOc2ccc(C3CCN(c4ccc5nnc(C(F)(F)F)n5n4)CC3)cc2)C(C)(C)C)cc1	CWR22RV1 cells	+++ (<40% : +++)
O=C1CCC(N2C(=O)c3cccc(NCC(=O)N4CCC(N5CCC(C#Cc6ccc(C(=O)Nc7ccc(C8CCN(C9=Nn%10c(nnc%10C(F)(F)F)CC9)CC8)cc7)nc6)CC5)CC4)c3C2=O)C(=O)N1 (stereo not shown)	CWR22RV1 cells	+++ (<40% : +++)
Cc1ncsc1-c1ccc(CNC(=O)[C@@H]2C[C@H](O)CN2C(=O)C(NC(=O)CC2O[C@H](CNC(=O)COc3ccc(C4CCN(C5=Nn6c(nnc6C(F)(F)F)CC5)CC4)cc3)[C@@H](O)[C@H]2O)C(C)(C)C)cc1 (stereo partly shown)	CWR22RV1 cells	− (<80% : −)

Parameter requested: Cytotoxicity, CWR22RV1 cells (cell viability %). Apply to each item below.
1. Cc1ncsc1-c1ccc(CNC(=O)[C@@H]2C[C@H](O)CN2C(=O)[C@@H](NC(=O)COCCCCCOc2ccc(C3CCN(C4=Nn5c(nnc5C(F)(F)F)CC4)CC3)cc2)C(C)(C)C)cc1
2. Cc1ncsc1-c1ccc(CNC(=O)C2CC(O)CN2C(=O)C(NC(=O)CC2O[C@H](COc3ccc(C4CCN(C5=Nn6c(nnc6C(F)(F)F)CC5)CC4)cc3)[C@@H](O)[C@H]2O)C(C)(C)C)cc1 (stereo partly shown)
3. CC1(C)C(NC(=O)c2ccc(C#CC3CCN(C(=O)CNc4cccc5c4C(=O)N(C4CCC(=O)NC4=O)C5=O)CC3)cc2)C(C)(C)C1Oc1ccc2nnc(C(F)(F)F)n2n1 (stereo not shown)
4. CC1(C)C(NC(=O)c2ccc(C#CC3CCN(C4CCN(C(=O)CNc5cccc6c5C(=O)N(C5CCC(=O)NC5=O)C6=O)CC4)CC3)cc2)C(C)(C)C1OC1=Nn2c(nnc2C(F)(F)F)CC1 (stereo not shown)
5. O=C1CCC(N2C(=O)c3cccc(N4CCN(c5ccc(C(=O)N[C@H]6CC[C@H](Oc7ccc8nnc(C(F)(F)F)n8n7)CC6)cn5)CC4)c3C2=O)C(=O)N1 (stereo partly shown)
6. Cc1ncsc1-c1ccc(CNC(=O)[C@@H]2C[C@H](O)CN2C(=O)[C@@H](NC(=O)COCCOc2ccc(C3CCN(C4=Nn5c(nnc5C(F)(F)F)CC4)CC3)cc2)C(C)(C)C)cc1

["+++ (<40% : +++)", "− (<80% : −)", "++ (40-60% : ++)", "+++ (<40% : +++)", "− (<80% : −)", "− (<80% : −)"]

----------
# System: VCaP cells
# procedure-text: Cytotoxicity assay (AlamarBlue, 72 hours)
# Type: cell-based
# condition: 72 hours treatment, concentration not given
readout-name: Cytotoxicity, VCaP cells (cell viability %)

compound	result
Cc1ncsc1-c1ccc(CNC(=O)[C@@H]2C[C@H](O)CN2C(=O)[C@@H](NC(=O)C2CCC(C(=O)N3CCC(C#Cc4ccc(C5CCN(C6=Nn7c(nnc7C(F)(F)F)CC6)CC5)cc4)CC3)CC2)C(C)(C)C)cc1 (stereo in doubt)	+++ (<40% : +++)
Cc1ncsc1-c1ccc(CNC(=O)[C@@H]2C[C@H](O)CN2C(=O)[C@@H](NC(=O)COCCCCOc2ccc(C(=O)NC3C(C)(C)C(Oc4ccc5nnc(C(F)(F)F)n5n4)C3(C)C)cc2)C(C)(C)C)cc1 (stereo partly shown)	+++ (<40% : +++)
Cc1ncsc1-c1ccc(CNC(=O)[C@@H]2C[C@H](O)CN2C(=O)[C@@H](NC(=O)COCCCCCCCOc2ccc(C3CCN(C4=Nn5c(nnc5C(F)(F)F)CC4)CC3)cc2)C(C)(C)C)cc1	+++ (<40% : +++)

----------
# System: CWR22RV1 cells
# procedure-text: Cytotoxicity assay (AlamarBlue, 72 hours)
# Format: cell-based
# condition: 72 hours treatment, concentration not given
readout-name: Cytotoxicity, CWR22RV1 cells (cell viability %)

molecule	target-under-test	result
Cc1ncsc1-c1ccc(CNC(=O)[C@@H]2C[C@H](O)CN2C(=O)[C@@H](NC(=O)COCCCCCCOc2ccc(C3CCN(C4=Nn5c(nnc5C(F)(F)F)CC4)CC3)cc2)C(C)(C)C)cc1 [Compound 22]	CWR22RV1 cells	+++ (<40% : +++)
O=C1CCC(N2Cc3c(NC(=O)COCCCCOc4ccc(C5CCN(c6ccc7nnc(C(F)(F)F)n7n6)CC5)cc4)cccc3C2=O)C(=O)N1 (stereo not shown) [Compound 38]	CWR22RV1 cells	+++ (<40% : +++)

----------
# Test system: CWR22RV1 cells
# procedure-text: Cytotoxicity assay (AlamarBlue, 72 hours)
# Assay type: cell-based
# condition: 72 hours treatment, concentration not given
readout-name: Cytotoxicity, CWR22RV1 cells (cell viability %)

molecule	result
Cc1ncsc1-c1ccc(CNC(=O)[C@@H]2C[C@H](O)CN2C(=O)[C@@H](NC(=O)C2CCC(C(=O)N3CCC(C#Cc4ccc(C5CCN(C6=Nn7c(nnc7C(F)(F)F)CC6)CC5)cc4)CC3)CC2)C(C)(C)C)cc1 (stereo in doubt) [Compound 34]	+ (60-80% : +)
O=C1CCC(N2C(=O)c3cccc(N4CCN(C(=O)COCCCCOc5ccc(C6CCN(C7=Nn8c(nnc8C(F)(F)F)CC7)CC6)cc5)CC4)c3C2=O)C(=O)N1 (stereo not drawn) [Compound 45]	+ (60-80% : +)
